Sourced from patent US10477864B2

# Compound, melting point
data = [
    ("CC(C)CC(C)(Cc1ccc(C#N)cc1)NC(=O)c1cnc2c(F)cccc2c1 (stereo not drawn)", "67 to 69 °C"),
    ("COc1cccc2cc(C(=O)NC(C)(Cc3ccccc3)CC(C)C)cnc12 (stereo not drawn)", "155 to 156 °C"),
    ("C=C(C)CC(C)(Cc1ccccc1)NC(=O)c1cnc2ccccc2c1 (stereo not drawn)", "99 to 103 °C"),
    ("Cc1cccc2ncc(C(=O)NC(C)(Cc3ccccc3)CC(C)C)cc12 (stereo not drawn)", "79 to 81 °C"),
    ("CC(Cc1ccccc1)(CC(F)(F)F)NC(=O)c1cnc2c(F)c(F)ccc2c1 (stereo not drawn)", "158 to 160 °C"),
    ("Cc1c(F)ccc2cc(C(=O)NC(C)(Cc3ccccc3)CC(F)(F)F)cnc12 (stereo not drawn)", "127 to 129 °C"),
    ("CC(Cc1cccc(F)c1)(CC(F)(F)F)NC(=O)c1cnc2c(F)cccc2c1 (stereo not drawn)", "149 to 151 °C"),
    ("CC(C)CC(C)(Cc1ccccc1)NC(=O)c1cnc2c(F)cccc2c1 (stereo not drawn)", "110 to 112 °C"),
    ("Cc1nc2c(Cl)cccc2cc1C(=O)NC(C)(Cc1ccccc1)CC(F)(F)F (stereo not drawn)", "176 to 179 °C"),
    ("CC(C)CC(C)(Cc1ccccc1)NC(=O)c1cnc2cccc(O)c2c1 (stereo not drawn)", "90 to 95 °C"),
    ("O=C(NC(CCC(F)(F)F)Cc1ccccc1)c1cnc2c(F)cccc2c1 (stereo not drawn)", "157 to 161 °C"),
    ("COC(C)(C)CC(C)(Cc1ccccc1)NC(=O)c1cnc2c(F)cccc2c1 (stereo not drawn)", "118 to 120 °C"),
]
